Below, each entry is listed alongside its reported pIC50.
- measured_on: ATR/ATRIP (Homo sapiens)
- Construct: human ATR, full length, GenBank ID: NM_001184.3; p53: Sf21 insect cells
- procedure_details: ATR/ATRIP kinase assay (TR-FRET, p53 phosphorylation)
- Format: biochemical
- setup_conditions: Table 1, class symbols; read-out: ATR-ATRIP IC50
pIC50: −log10 of the molar value.

Solved entries (count: 5):
smiles_representation	pIC50
CC(C)Nc1cnc2[nH]ccc2c1-c1nc2c(c(C(C)(C)S(C)(=O)=O)n1)OC[C@@H]1COC[C@@H](C)N21	8.00 to 9.00
CNc1ncn(-c2nc3c(c(C(C)(C)S(C)(=O)=O)n2)OC[C@@H]2COC[C@@H](C)N32)n1	6.30 to 7.00
C[C@@H]1COC[C@H]2COc3c(nc(-c4ccc5cc(N)ncc5c4)nc3C(C)(C)S(C)(=O)=O)N21	7.00 to 8.00
C[C@@H]1COC[C@H]2COc3c(nc(-c4c(C#N)cnc5[nH]ccc45)nc3C(C)(C)S(C)(=O)=O)N21	8.00 to 9.00
C[C@@H]1COC[C@H]2COc3c(nc(-c4ccc5nc(N)ncc5c4)nc3C(C)(C)S(C)(=O)=O)N21	7.00 to 8.00

Reported pIC50 for C[C@@H]1COC[C@H]2COc3c(nc(-c4ccc5ccncc5c4)nc3C(C)(C)S(C)(=O)=O)N21 was 7.00 to 8.00

Reported pIC50 for CNc1nc2ccccc2n1-c1nc2c(c(C(C)(C)O)n1)OC[C@@H]1COC[C@@H](C)N21 was > 9.00

* * *

- measured_on: Kv11.1 (hERG) ion channel (Homo sapiens, UniProt Q12809)
- Sequence (Q12809 whole entry): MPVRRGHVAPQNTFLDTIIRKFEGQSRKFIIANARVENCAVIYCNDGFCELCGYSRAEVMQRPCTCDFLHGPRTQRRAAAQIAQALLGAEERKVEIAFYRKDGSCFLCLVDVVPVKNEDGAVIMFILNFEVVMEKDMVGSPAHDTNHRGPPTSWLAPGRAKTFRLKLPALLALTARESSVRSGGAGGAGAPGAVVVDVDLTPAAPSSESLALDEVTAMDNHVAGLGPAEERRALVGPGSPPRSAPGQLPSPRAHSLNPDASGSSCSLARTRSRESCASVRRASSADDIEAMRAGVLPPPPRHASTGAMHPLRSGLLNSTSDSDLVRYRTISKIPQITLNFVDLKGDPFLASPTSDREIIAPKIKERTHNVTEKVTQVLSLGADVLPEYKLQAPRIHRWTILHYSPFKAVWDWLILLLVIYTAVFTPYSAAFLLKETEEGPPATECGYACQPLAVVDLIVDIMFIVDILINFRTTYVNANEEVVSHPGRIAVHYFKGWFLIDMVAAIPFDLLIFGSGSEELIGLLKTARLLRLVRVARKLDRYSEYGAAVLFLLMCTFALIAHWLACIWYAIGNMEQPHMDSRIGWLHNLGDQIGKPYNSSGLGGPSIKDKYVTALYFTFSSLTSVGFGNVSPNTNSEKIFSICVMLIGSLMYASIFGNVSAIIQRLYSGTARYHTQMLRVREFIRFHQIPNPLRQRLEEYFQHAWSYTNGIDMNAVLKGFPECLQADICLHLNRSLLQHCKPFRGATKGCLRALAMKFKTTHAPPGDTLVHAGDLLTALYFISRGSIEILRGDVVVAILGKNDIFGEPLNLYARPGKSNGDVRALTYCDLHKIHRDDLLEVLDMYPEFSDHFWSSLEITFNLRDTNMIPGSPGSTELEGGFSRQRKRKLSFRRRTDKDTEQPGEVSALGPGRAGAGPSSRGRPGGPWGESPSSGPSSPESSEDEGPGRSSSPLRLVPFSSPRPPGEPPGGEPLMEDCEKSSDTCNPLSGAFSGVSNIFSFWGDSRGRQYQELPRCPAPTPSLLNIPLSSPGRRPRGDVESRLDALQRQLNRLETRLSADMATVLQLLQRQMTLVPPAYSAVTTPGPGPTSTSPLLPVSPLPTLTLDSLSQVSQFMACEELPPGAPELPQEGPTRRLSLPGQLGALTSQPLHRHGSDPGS
- procedure_details: Kv11.1 (hERG) ion channel activity, whole cell patch clamp
- setup_conditions: Table 3; HEK293 hERG patch clamp
pKi: −log10 of the molar value.
Below, each entry is listed alongside its reported pKi.

smiles_representation	pKi
C[C@@H]1COC[C@H]2COc3c(nc(-c4c(N)cnc5[nH]ccc45)nc3C(C)(C)S(C)(=O)=O)N21	< 5.00
C[C@@H]1COC[C@H]2COc3c(nc(-c4ccnc5[nH]ccc45)nc3C(C)(C)S(C)(=O)=O)N21	5.19

Next compound, please.
Reported pKi for CNc1cnc2[nH]ccc2c1-c1nc2c(c(C(C)(C)S(C)(=O)=O)n1)OC[C@@H]1COC[C@@H](C)N21 was < 4.52

* * *

- measured_on: ATR/ATRIP (Homo sapiens, UniProt Q13535)
- Construct: human ATR, full length, GenBank ID: NM_001184.3; p53: Sf21 insect cells
- Sequence (Q13535 whole entry): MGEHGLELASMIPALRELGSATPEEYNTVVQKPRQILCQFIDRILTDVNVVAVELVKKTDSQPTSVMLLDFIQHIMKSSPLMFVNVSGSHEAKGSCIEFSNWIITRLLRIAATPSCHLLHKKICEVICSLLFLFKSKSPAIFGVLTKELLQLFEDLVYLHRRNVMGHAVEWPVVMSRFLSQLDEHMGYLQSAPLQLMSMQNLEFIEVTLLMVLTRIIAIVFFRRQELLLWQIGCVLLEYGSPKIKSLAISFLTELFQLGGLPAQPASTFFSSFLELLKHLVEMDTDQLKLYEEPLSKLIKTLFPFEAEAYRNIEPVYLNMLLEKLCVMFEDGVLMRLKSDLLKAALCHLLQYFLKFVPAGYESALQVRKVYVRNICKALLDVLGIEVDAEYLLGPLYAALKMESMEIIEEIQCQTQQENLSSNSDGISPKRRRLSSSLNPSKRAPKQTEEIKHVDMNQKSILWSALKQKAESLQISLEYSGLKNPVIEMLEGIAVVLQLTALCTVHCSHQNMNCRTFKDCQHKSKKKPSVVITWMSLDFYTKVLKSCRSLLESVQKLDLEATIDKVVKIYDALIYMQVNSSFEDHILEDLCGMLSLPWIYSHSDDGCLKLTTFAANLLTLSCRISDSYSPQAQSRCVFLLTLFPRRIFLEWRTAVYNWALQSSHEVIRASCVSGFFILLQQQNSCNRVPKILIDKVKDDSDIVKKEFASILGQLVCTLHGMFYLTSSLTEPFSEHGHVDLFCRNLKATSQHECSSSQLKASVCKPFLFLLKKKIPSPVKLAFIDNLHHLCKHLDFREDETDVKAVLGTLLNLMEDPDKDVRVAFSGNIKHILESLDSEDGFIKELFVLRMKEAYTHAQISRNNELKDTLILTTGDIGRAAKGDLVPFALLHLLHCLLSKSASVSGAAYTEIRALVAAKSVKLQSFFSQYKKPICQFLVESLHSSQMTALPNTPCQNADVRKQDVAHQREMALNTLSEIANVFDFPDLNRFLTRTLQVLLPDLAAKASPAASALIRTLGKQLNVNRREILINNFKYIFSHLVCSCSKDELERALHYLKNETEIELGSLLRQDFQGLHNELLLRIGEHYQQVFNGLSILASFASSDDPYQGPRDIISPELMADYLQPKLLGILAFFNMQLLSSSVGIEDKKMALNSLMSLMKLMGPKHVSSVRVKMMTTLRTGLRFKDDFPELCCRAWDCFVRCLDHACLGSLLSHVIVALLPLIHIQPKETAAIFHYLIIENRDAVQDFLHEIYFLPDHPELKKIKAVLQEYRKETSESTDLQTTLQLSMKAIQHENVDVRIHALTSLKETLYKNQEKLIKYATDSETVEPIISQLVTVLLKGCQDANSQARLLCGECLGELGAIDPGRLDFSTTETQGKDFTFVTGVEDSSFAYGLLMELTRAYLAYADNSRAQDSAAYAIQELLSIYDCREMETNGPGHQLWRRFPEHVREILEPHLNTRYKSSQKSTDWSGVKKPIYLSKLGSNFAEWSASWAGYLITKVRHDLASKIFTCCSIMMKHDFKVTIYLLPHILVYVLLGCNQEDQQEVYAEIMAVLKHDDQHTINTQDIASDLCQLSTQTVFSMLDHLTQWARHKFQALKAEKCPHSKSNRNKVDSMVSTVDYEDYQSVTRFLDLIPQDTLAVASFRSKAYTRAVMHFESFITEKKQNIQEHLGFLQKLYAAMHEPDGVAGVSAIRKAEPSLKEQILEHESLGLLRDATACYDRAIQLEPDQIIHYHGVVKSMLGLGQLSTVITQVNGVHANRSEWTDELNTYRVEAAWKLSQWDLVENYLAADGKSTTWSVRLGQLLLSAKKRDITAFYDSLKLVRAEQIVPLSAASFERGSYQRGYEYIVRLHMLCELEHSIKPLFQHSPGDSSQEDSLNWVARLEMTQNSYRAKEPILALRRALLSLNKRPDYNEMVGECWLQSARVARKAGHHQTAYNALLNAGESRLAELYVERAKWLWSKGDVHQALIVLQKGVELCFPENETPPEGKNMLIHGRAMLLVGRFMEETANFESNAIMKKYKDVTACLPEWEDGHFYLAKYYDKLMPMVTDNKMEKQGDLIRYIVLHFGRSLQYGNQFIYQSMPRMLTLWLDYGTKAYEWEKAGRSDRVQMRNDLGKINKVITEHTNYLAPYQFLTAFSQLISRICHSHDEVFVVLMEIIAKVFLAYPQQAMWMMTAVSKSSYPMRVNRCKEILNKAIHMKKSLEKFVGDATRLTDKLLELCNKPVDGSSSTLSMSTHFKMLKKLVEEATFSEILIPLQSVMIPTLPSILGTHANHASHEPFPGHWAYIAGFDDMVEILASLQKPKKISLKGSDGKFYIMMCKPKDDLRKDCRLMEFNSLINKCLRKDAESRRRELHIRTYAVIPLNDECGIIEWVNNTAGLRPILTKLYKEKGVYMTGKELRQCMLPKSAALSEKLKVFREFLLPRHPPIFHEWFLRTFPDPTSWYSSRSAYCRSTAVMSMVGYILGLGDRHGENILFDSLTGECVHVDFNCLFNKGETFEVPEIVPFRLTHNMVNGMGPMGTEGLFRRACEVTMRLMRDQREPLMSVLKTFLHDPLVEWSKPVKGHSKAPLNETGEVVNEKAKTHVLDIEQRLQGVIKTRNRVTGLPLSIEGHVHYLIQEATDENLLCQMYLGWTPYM
- Sequence (Q8WXE1 whole entry partner): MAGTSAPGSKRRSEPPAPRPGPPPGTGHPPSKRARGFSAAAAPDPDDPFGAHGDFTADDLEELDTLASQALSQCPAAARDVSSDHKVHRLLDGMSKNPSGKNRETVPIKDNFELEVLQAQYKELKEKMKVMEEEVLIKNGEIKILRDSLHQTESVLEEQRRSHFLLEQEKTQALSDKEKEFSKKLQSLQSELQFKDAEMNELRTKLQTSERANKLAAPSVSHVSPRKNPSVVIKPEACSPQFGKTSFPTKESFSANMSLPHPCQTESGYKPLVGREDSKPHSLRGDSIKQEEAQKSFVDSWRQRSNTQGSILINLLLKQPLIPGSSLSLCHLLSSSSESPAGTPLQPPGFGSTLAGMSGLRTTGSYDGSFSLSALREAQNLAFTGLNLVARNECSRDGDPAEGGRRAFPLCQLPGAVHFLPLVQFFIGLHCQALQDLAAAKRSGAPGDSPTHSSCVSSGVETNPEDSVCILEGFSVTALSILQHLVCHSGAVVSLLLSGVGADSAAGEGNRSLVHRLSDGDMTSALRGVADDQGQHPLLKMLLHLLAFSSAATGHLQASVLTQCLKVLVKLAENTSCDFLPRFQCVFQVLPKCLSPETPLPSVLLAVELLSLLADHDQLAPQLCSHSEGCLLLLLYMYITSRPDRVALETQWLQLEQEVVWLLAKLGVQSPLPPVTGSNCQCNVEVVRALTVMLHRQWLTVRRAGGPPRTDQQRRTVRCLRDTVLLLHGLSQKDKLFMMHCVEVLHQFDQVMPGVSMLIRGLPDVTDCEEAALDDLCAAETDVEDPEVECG
- procedure_details: ATR/ATRIP kinase assay (TR-FRET, p53 phosphorylation)
- Type: biochemical
- setup_conditions: Table 1, class symbols; read-out: ATR-ATRIP IC50
property: IC50

Solved entries (count: 2):
smiles_representation	property	result
COC(=O)c1cn(Cc2nc(-c3ccnc4[nH]ccc34)nc3c2OC[C@@H]2COC[C@@H](C)N32)nn1	IC50	1 to 10 nM
CNc1nc2ccccc2n1-c1nc2c(c(C(C)(C)S(C)(=O)=O)n1)OC[C@H]1COC[C@@H](C)N21	IC50	1 to 10 nM

IC50 value, target or system ATR/ATRIP (Homo sapiens, UniProt Q13535), for C[C@@H]1COC[C@H]2COc3c(nc(C(=O)N4CC[C@H](O)C4)nc3C(C)(C)S(C)(=O)=O)N21 : 500 to 30000 nM

IC50 value, target or system ATR/ATRIP (Homo sapiens, UniProt Q13535), for C[C@@H]1COC[C@H]2COc3c(nc(-c4c(N)cnc5[nH]ccc45)nc3C3(S(C)(=O)=O)CC3)N21 : < 1 nM

IC50 value, target or system ATR/ATRIP (Homo sapiens, UniProt Q13535), for C[C@@H]1COC[C@H]2COc3c(nc(-c4c(N)cnc5[nH]ccc45)nc3C(C)(C)O)N21 : < 1 nM

IC50 value, target or system ATR/ATRIP (Homo sapiens, UniProt Q13535), for C[C@@H]1COC[C@H]2COc3c(nc(-c4cncc5[nH]ccc45)nc3C(C)(C)S(C)(=O)=O)N21 : < 1 nM

IC50 value, target or system ATR/ATRIP (Homo sapiens, UniProt Q13535), for C[C@@H]1COC[C@H]2COc3c(nc(-c4cccc5c4CS(=O)(=O)N5)nc3C(C)(C)S(C)(=O)=O)N21 : 10 to 100 nM

IC50 value, target or system ATR/ATRIP (Homo sapiens, UniProt Q13535), for C[C@@H]1COC[C@H]2COc3c(nc(-n4ccc(O)n4)nc3C(C)(C)S(C)(=O)=O)N21 : 10 to 100 nM

IC50 value, target or system ATR/ATRIP (Homo sapiens, UniProt Q13535), for CNc1nc2c(F)cccc2n1-c1nc2c(c(C(C)(C)S(C)(=O)=O)n1)OC[C@@H]1COC[C@@H](C)N21 : < 1 nM

IC50 value, target or system ATR/ATRIP (Homo sapiens, UniProt Q13535), for CNc1nc2ccccc2n1-c1nc2c(c(C(C)(C)S(C)(=O)=O)n1)OC[C@H]1COC[C@H](C)N21 : 10 to 100 nM

IC50 value, target or system ATR/ATRIP (Homo sapiens, UniProt Q13535), for CNc1nc2ccccc2n1-c1nc(Cn2nncc2C(=O)O)c2c(n1)N1[C@@H](COC[C@H]1C)CO2 : 100 to 500 nM

IC50 value, target or system ATR/ATRIP (Homo sapiens, UniProt Q13535), for C[C@@H]1COC[C@H]2COc3c(nc(Nc4cn[nH]n4)nc3C(C)(C)S(C)(=O)=O)N21 : 10 to 100 nM

IC50 value, target or system ATR/ATRIP (Homo sapiens, UniProt Q13535), for [2H]C([2H])([2H])Nc1cnc2[nH]ccc2c1-c1nc2c(c(C(C)(C)S(C)(=O)=O)n1)OC[C@@H]1COC[C@@H](C)N21 : 1 to 10 nM

IC50 value, target or system ATR/ATRIP (Homo sapiens, UniProt Q13535), for C[C@@H]1COC[C@H]2COc3c(nc(-n4cc(C(N)=O)cn4)nc3C(C)(C)S(C)(=O)=O)N21 : 500 to 30000 nM

IC50 value, target or system ATR/ATRIP (Homo sapiens, UniProt Q13535), for C[C@@H]1COC[C@H]2COc3c(nc(-c4cc5cc(F)ncc5[nH]4)nc3C(C)(C)S(C)(=O)=O)N21 : 10 to 100 nM
